# Target Under Test: T1, Bzz1-2, P38822
# T1 sequence (P38822 568-633, looked up): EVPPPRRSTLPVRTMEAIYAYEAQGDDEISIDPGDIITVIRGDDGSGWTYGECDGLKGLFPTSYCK
# Protocol Details: SPOT array
# Run Conditions: median of control spots 4538
In this section, each of the binders is paired with its reported SPOT intensity.

# Binder, SPOT intensity
rows = [
    ("TKPTPPPKPSHLKPK", 0),
    ("SKAKRPKFLLDLQIK", 1),
    ("APPLPPTAPPPPSLP", 0),
    ("EAEEAAPQLPSRSSA", 2),
    ("DLFKPLPEPPTELGR", 0),
    ("KLSRGRYGLPLSSRP", 7),
    ("LPPPPPPPPPPPLPQ", 0),
    ("KDKSRPPRPPPKPLH", 0),
    ("FLIKFTPKFPQSIDH", 9),
    ("SAPDIPPRSPNRNAH", 0),
    ("YYNRQELALPKRMSS", 4),
    ("GQYRRTIVIPRRFFT", 0),
    ("SRQAIPPPVPNRPGG", 0),
    ("LKRITSPPLPPRADS", 6),
    ("RSLRKRPTSPSISGS", 21),
    ("PPPPPPPPPPLPQSL", 2),
    ("FIRKRAPTPPAPSRS", 522),
    ("DGNEEKPLLPTRPNK", 0),
    ("KIRRSSLMIPNPQQF", 0),
    ("YRRKSIPFAPHQITA", 5),
    ("PLRRTVMSLPGNHDI", 1),
    ("PELAPKREAPKPPAN", 4),
    ("SHRLWLYAAPKRPKT", 0),
    ("PSRRAPLQLPQLVNK", 0),
    ("SSTPTTPERPKRKSG", 1),
]
